# Test system: Fibrinogen (Alexa647-labelled)
# experiment.description: fibrinogen binders on compound microarrays, profiling panel, artefact control for SMM control-protein annotation, biochemical, small-molecule microarray, 635/667 nm fluorescence (AID 1131);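 also: z-score merges 667 nm fluorescence with per-spot signal-to-noise over triplicate slides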
# protocol.conditions: fibrinogen-A647 binding fluorescence, higher = more signal
Assign class by composite z-score: not lower than 0.5 means true (1); lower than 0.5 means false (0).

INSERT INTO results (compound, class) VALUES
  ('COC(=O)[C@@]1(Cc2ccc(OC)cc2)[C@H]2c3cc(C(=O)N(C)C)n(Cc4c(CO)[nH]cc(C)c4=O)c3C[C@H]2CN1C(=O)c1ccccc1', 'false (0)'),
  ('COc1ccc(CCNC(=O)[C@@]2(c3ccc([N+](=O)[O-])cc3)CC(=O)N(C3CCCCC3)[C@@H]2c2ccc(CO)cc2I)cc1', 'false (0)'),
  ('COCCOC(=O)N1C(=O)[C@@]2(c3cc(C#CCC(C(=O)OC)C(=O)OC)ccc31)[C@H](C(=O)N1CCc3cc(OC)c(OC)cc3C1)[C@H]1C(=O)O[C@H](c3ccccc3)[C@H](c3ccccc3)N1[C@@H]2c1ccccc1OCCO', 'true (1)'),
  ('CC(C)C[C@@H]1NC(=O)[C@@H]2C[C@H](C(=O)NCCCCCNC(=O)CS)[C@H](c3ccc(O)cc3)N2C1=O', 'false (0)'),
  ('O=C(c1ccccc1)N1Cc2ccccc2C[C@@]2(N=C(c3ccc(OCCCO)cc3)O[C@H]2c2ccccc2)C1=O', 'true (1)'),
  ('CCCCCN1CC=CC23O[C@@H]4/C=C\CCCOC(=O)C4[C@H]2C(=O)N(CCO)[C@@H]3C1=O (stereo not given in full)', 'false (0)'),
  ('COc1ccc(C(O)C2C=CC3C(=O)N(C)C(=O)C3N2Nc2ccccc2)cc1 (stereo not given)', 'true (1)'),
  ('C[C@]1(C(=O)NCC(F)(F)F)c2ccccc2C(=O)N(Cc2cc(C(F)(F)F)cc(C(F)(F)F)c2)[C@H]1c1ccc(CO)cc1', 'false (0)');
